System: 786-0
Assay: NCI tumour cell line growth inhibition, 48 h
Calls of active or inactive are those of the source. Cut-off read from the data, not from the text of the source: active = GI50 up to about 1.1 µM and inactive = higher.
QUANTITY_KIND: GI50

Please review the following examples before continuing.
| COMPOUND | GI50 |
| --- | --- |
| C1=N\CCOCC/N=C\c2ccc(cc2)OCc2cccc(n2)COc2ccc/1cc2 | > 100 µM (inactive) |
| Cc1nc2c(n1CCO)C(=O)c1ccccc1C2=O | 46.9 µM (inactive) |
| c1ccc(C2=NC3OC2c2ccccc23)cc1 (stereo not given) | > 10 µM (inactive) |
| O=C1NCC2=C1CCC1c3ccccc3CCN21 (stereo not given) | > 100 µM (inactive) |
| O=C1NC(Cc2ccc(O)cc2)C(=O)N2CCCC12 (stereo not given) | > 100 µM (inactive) |
| COC(=O)c1cc(NC(=O)Cc2c[nH]c3ccccc23)cn1C | > 100 µM (inactive) |
| Nc1ccc2nc3n(c2c1)C(=O)c1ccccc1-3 | > 100 µM (inactive) |
| O=C(CC1(O)C(=O)Nc2c(Cl)cc(Cl)cc21)c1ccc(Br)cc1 (stereo not given) | 13.2 µM (inactive) |
| COc1ccc(OC)c(/C=N/N=C2\C(=O)Nc3c(Cl)cc(Cl)cc32)c1 | 33.3 µM (inactive) |
| O=C1/C(=C/c2cc(O)c(O)c(O)c2)Oc2cc(O)cc(OC3OC(CO)C(O)C(O)C3O)c21 (stereo not given) | 27.9 µM (inactive) |

With those in mind, consider the next compound.
// Input: Cc1ccc(C2=C(Cl)C(=O)C(c3ccc(C)cc3)=C(Cl)C2=O)cc1 . Output its GI50 only.
> 100 µM (inactive)
